Measured IC50 values are reported for all entries that follow.
target: TYK2-JH2 domain (Homo sapiens); construct: IC50 on JH2 domain activity (nM); assay: Binding activity test for JH2 domain of TYK2 (Tb-antibody/tracer FRET)
Sequence (P29597 589-875 limits assumed): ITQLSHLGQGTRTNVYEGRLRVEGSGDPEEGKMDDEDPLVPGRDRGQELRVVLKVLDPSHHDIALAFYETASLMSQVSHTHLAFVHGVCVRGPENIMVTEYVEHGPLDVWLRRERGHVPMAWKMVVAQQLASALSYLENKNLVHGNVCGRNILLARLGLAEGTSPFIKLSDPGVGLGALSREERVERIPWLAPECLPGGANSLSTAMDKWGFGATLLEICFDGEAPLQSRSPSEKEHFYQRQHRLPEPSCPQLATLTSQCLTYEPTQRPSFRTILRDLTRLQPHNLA
Write down the numeric answer in nM and omit the unit.

compound	IC50, nM
[2H]C([2H])([2H])NC(=O)c1cnc(NC(=O)C2CC2)cc1Nc1ncc2cnn(CC(C)(F)F)c2c1OC [Example 276]	0.253
[2H]C([2H])([2H])NC(=O)c1cnc(Nc2ccc(F)cn2)cc1Nc1cn(C)c2c(F)cn(CC)c(=O)c12 [Example 125]	1.44
[2H]C([2H])([2H])NC(=O)c1cnc(NC(=O)C2CC2)cc1Nc1ccc2cnn(CC(F)(F)F)c2c1OC [Example 129]	0.416
[2H]C([2H])([2H])NC(=O)c1cnc(NC(=O)C2CC2)cc1Nc1ccc2nn(C)c(CC)c2c1OC [Example 232]	1.58
[2H]C([2H])([2H])NC(=O)c1cnc(Nc2ccn(C)n2)cc1Nc1ccc2cnn(C([2H])([2H])[2H])c2c1OC [Example 154]	1.19
[2H]C([2H])([2H])NC(=O)c1cnc(NC(=O)C2CC2)cc1Nc1ncn2ncc(C#N)c2c1OC [Example 282]	0.27

IC50 recorded for this compound, [2H]C([2H])([2H])NC(=O)c1cnc(NC(=O)C2CC2)cc1Nc1cn(CC)c2ncn([C@H](C)C(F)(F)F)c(=O)c12 (single isomer, unassigned) [Example 254A] , is 0.868

====

target: JAK1-JH2 domain (Homo sapiens); construct: IC50 on JH2 domain activity (nM); test: Binding activity test for JH2 domain of JAK1 (Tb-antibody/tracer FRET)
Sequence (P23458 583-855 limits assumed): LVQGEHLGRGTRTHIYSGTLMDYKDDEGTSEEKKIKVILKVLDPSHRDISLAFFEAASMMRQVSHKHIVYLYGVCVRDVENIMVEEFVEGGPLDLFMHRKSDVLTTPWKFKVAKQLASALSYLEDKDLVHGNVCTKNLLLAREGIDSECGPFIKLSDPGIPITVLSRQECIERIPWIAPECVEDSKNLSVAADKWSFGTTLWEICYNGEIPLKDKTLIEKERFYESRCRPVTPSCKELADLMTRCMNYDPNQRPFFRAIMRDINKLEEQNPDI
pIC50: −log10 of the molar value.
Everything with pIC50 lower than 8 is false (0); everything else, including exactly 8, is true (1).

Quick check: does `[2H]C([2H])([2H])NC(=O)c1cnc(NC(=O)C2CC2)cc1Nc1nn(CCC)c2ccn(CC(F)(F)F)c(=O)c12` have pIC50 greater than or equal to 8?
false (0)

Is reported pIC50 greater than or equal to 8 here: `[2H]C([2H])([2H])NC(=O)c1cnc(NC(=O)C2CC2)cc1Nc1ccc2ccn(CC)c2c1OC`
true (1)

Test whether the compound `[2H]C([2H])([2H])NC(=O)c1cnc(NC(=O)C2CCC2)cc1Nc1ccc2cnn(CC)c2c1OC` records pIC50 of 8 or higher.
false (0)

For this compound, is measured pIC50 8 or higher? `[2H]C([2H])([2H])NC(=O)c1cnc(NC(=O)C2CC2)cc1Nc1ccn2ncc(F)c2c1OC`
false (0)

Check this compound for pIC50 at or above 8: `[2H]C([2H])([2H])NC(=O)c1cnc(NC(=O)CC)cc1Nc1ccc2cnn(CC)c2c1OC`
false (0)

====

target: Ba/F3-FL-TYK2-P760L cells (Homo sapiens, UniProt P29597, P760L, cells depend on it); construct: BaF3-FL-T2P760L (nM); assay: Anti-proliferative assay, Ba/F3-FL-TYK2-P760L cells (Cell-Titer Glo); assay type: cell-based; conditions: 72 h, read-out: BaF3-FL-T2P760L IC50
Sequence (P29597 whole entry P760L): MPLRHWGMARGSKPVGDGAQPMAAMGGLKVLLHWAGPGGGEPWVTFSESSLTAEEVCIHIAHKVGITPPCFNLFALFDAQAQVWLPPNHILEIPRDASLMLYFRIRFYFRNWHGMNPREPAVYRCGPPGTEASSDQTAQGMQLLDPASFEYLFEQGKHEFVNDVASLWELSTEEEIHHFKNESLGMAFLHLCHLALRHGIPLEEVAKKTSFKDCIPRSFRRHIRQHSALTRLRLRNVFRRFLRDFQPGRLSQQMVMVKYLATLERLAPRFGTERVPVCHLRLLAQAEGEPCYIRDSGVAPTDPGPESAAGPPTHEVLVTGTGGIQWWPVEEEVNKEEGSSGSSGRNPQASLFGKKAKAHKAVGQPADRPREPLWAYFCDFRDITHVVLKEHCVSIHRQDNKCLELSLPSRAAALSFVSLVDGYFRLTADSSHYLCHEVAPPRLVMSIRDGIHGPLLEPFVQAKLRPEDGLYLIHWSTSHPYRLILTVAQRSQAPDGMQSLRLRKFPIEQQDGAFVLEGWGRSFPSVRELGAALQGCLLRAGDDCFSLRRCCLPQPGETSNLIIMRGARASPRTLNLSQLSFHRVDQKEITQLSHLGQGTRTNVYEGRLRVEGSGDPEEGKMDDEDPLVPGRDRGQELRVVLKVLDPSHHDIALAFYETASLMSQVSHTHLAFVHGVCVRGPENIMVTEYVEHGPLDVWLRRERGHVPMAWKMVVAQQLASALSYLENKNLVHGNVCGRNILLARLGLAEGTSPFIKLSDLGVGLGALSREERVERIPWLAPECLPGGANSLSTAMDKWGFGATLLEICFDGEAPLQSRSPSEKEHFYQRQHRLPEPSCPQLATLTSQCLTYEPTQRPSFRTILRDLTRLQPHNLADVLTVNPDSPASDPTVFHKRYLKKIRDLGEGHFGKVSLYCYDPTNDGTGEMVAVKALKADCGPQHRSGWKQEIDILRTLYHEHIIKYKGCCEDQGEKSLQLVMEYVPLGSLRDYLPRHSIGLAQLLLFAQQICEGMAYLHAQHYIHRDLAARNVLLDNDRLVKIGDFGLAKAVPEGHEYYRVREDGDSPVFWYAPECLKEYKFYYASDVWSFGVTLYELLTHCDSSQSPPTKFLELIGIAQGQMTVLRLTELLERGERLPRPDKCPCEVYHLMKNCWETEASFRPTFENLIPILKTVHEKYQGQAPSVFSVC
quantity: GI50 (nM)
Your answer is read as nM, so omit the unit and give the number.

Below, 5 compounds whose answers are already recorded.
compound	GI50, nM
[2H]C([2H])([2H])NC(=O)c1cnc(NC(=O)C2CC2)cc1Nc1ccn2nccc2c1OC [Example 258]	205
[2H]C([2H])([2H])NC(=O)c1cnc(NC(=O)C2CC2)cc1Nc1cn(C)c2ccn(CC3CC3)c(=O)c12 [Example 106]	206
[2H]C([2H])([2H])NC(=O)c1cnc(Nc2ccc(F)cc2)nc1Nc1cn(C)c2ccn(C)c(=O)c12 [Example 4]	548
[2H]C([2H])([2H])NC(=O)c1cnc(Nc2ccc(F)cn2)cc1Nc1cn(C)c2c(F)cn(CC)c(=O)c12 [Example 125]	31.9
CNC(=O)c1cnc(NC(=O)C2CC2)nc1Nc1cccc(OC2CCOCC2)c1OC [Example 7]	8020

response.value for [2H]C([2H])([2H])NC(=O)c1cnc(Nc2ccc(F)cn2)cc1Nc1cn(C)c2c(Cl)cn(C([2H])([2H])[2H])c(=O)c12 [Example 170] (field: GI50) = 27.6

Value of GI50 reported for the compound [2H]C([2H])([2H])NC(=O)c1cnc2nc1Nc1cc(cc(-c3ncn(C)n3)c1OC)COCc1cc(cc(F)c1F)N2 [Example 78] is 46.5

Just so you know, measured GI50 for [2H]C([2H])([2H])NC(=O)c1cnc(NC(=O)C2CC2)cc1Nc1ccc2cnn(C3CCOCC3)c2c1OC [Example 127] came out at 378

According to the records, this compound [2H]C([2H])([2H])NC(=O)c1cnc(NC(=O)C2CC2)cc1Nc1ncc2ncn(CC)c2c1OC [Example 260] displays GI50 of 143
